Test system: 786-0
test: NCI tumour cell line growth inhibition, 48 h
Active and inactive are the calls of the source. Cut-off read from the data, not from the text of the source: active = GI50 up to about 1.1 µM and inactive = higher.
Log the outcome using a class from t (active), f (inactive)

> print(dat)
                             compound  group
1  Cc1cc2c(c3nocc13)C(=O)c1ccccc1C2=O      f

Q: Could you check what this test reported for C=CC1ON(Cc2ccccc2)CCc2cc(OC)c(OC)cc21 (configuration not stated) ?
A: f

Q: Could you check what this test reported for CCC(/C=C/c1ccccc1)=N\N=C(\C=C\c1ccccc1)CC ?
A: f

* * *

Tested on: Hs-578T
test: NCI tumour cell line growth inhibition, 48 h
The source made the active and inactive calls. Cut-off read from the data, not from the text of the source: active = GI50 up to about 1.1 µM and inactive = higher.
Log the outcome using a class from active, inactive

Example cases with answers are listed next.
compound	group
COC(=O)/N=[N+](\[O-])C(c1ccc(OC)cc1)C1CCCCC1 (centres undefined)	inactive
Cc1ccc(-c2cn3c(nc4ccccc43)c(-c3ccccc3)n2)cc1	inactive
N#CCN1c2ccccc2CCC1Cl (centres undefined)	inactive
Nc1c2cc3ccc2nc2ccc(cc12)OCCOCCOCCOCCOCCOCCO3	inactive
O=c1c2c(no[n+]2[O-])c2ccccc2n1-c1ccccc1	inactive

Q: Could you check what this test reported for COC(=O)NN=C(c1ccc(Cl)cc1)c1ccc(Cl)cc1 ?
A: inactive

Q: Could you check what this test reported for CC(=O)c1cc2c(Br)cccc2oc1=O ?
A: inactive

Q: Could you check what this test reported for CCOC(=O)C1(O)C(=O)C2=C3C(=O)OC(C4OC(=O)c5c(c(O)c(O)c(O)c5C31)-c1c(cc(O)c(O)c1O)C(=O)OC1COC(=O)c3cc(O)c(O)c(O)c3-c3c(cc(O)c(O)c3O)C(=O)OC14)[C@@H]2O (some centres undefined) ?
A: inactive

* * *

Exercise: state measured GI50 for each of the compounds provided.
System: NCI-H226
test: NCI tumour cell line growth inhibition, 48 h
Calls of active or inactive are those of the source. Rule as the data show it: active = GI50 up to about 1.1 µM and inactive = higher.

Answered examples (3):
> print(dat)
                              smiles.record               result
1  Nc1nc(-[n+]2ccc(-c3ccncc3)cc2)nc(Cl)c1Cl  > 100 µM (inactive)
2              COc1ccccc1/C=C(\C#N)c1ccccc1   3.13 µM (inactive)
3  C[n+]1c2ccccc2c(/C=N\NS(=O)(=O)c2ccc(O)c(C(=O)O)c2)c2ccccc21   26.1 µM (inactive)

Shift focus to the following entry.
Q: Report GI50 for C[C@@H]1CC[C@H]2[C@H]1[C@H]1[C@@H](CC[C@]2(C)N=C=S)C1(C)C
A: 17.7 µM (inactive)

* * *

System: A498
test: NCI tumour cell line growth inhibition, 48 h
The source made the active and inactive calls. Cut-off read from the data, not from the text of the source: active = GI50 up to about 1.1 µM and inactive = higher.
Log the outcome using a class from active, inactive

Example cases with answers are listed next.
compound	measured-target	group
O=c1cc2ccccc2nn1-c1ccccc1Cl	A498	inactive
CC(C)(C)c1cc2c(OC/C=C/c3ccccc3)c(c1)Cc1cc(C(C#N)(OC/C=C/c3ccccc3)OC/C=C/c3ccccc3)cc(c1OC/C=C\c1ccccc1)Cc1cc(C(C)(C)C)cc(c1OC/C=C/c1ccccc1)Cc1cc(C(C#N)(OC/C=C\c3ccccc3)OC/C=C/c3ccccc3)cc(c1OC/C=C\c1ccccc1)C2 (configuration not stated)	A498	inactive
Oc1cc2c3c(c1)c1cc4c(cc1c[n+]3CC2)OCO4	A498	inactive
CC1=C2C(=CC(C)(C)[C@@H]2O)C(=O)[C@](C)(O)C12CC2 [ILLUDIN M]	A498	active
C1CSCCSCSCCS1	A498	inactive

Q: Could you check what this test reported for N#Cc1ccc(C2Oc3ccc(Cl)cc3C=C2[N+](=O)[O-])cc1 (configuration not stated) ?
A: inactive

Q: Could you check what this test reported for Cc1cc2c(cc1C)[n+]([O-])c(C#N)c(Cl)[n+]2[O-] ?
A: inactive

Q: Could you check what this test reported for COc1cc(=O)oc(/C=C/C=C/C=C/C(C)=C\C2(C)OC(C)C(C)(O)C2O)c1C (configuration not stated) ?
A: inactive

Q: Could you check what this test reported for CC(=O)C(C(C)=O)[C@@H]1OC(C)(C)O[C@@H]1[C@H]1COC(C)(C)O1 ?
A: inactive

Q: Could you check what this test reported for C/C(=N/NC(=S)N1CCCCC1)c1ccccc1O ?
A: inactive

Q: Could you check what this test reported for [N-]=[N+]=NC1C(Br)C(=O)NC(=O)N1[C@H]1C[C@H](O)[C@@H](CO)O1 (some centres not stated) ?
A: inactive

Q: Could you check what this test reported for COc1cc([C@H]2c3cc4c(cc3[C@H](NCc3ccc([N+](=O)[O-])cc3)C3COC(=O)[C@H]32)OCO4)cc(OC)c1O (some centres not stated) ?
A: active

* * *

Exercise: state measured GI50 for each of the molecules provided.
Tested on: TK-10
test: NCI tumour cell line growth inhibition, 48 h
Calls of active or inactive are those of the source. Cut-off read from the data, not from the text of the source: active = GI50 up to about 1.1 µM and inactive = higher.

Answered examples (3):
> print(dat)
                                   molecule               result
1  CCN(CC)C(=O)CC12CCCCC1=Nc1ccccc12 (stereo not given)  > 100 µM (inactive)
2    S=C(N/N=C(\c1ccccc1)c1ccccn1)NC1CCCCC1    0.849 µM (active)
3  Cc1ccc(NC(=O)OCC(COc2ccc(Cl)cc2)OC(=O)Nc2ccc(C)cc2)cc1 (stereo not given)   12.4 µM (inactive)

Give GI50 for each of the items listed below.
1. C[C@H](C(=O)N1C(=O)O[C@@H](c2ccccc2)[C@H]1C)[C@H](c1ccccc1)N(Cc1ccccc1)OC(=O)c1ccccc1
2. CC1=CCC(=O)[C@]2(C)C(CC(=O)O)[C@]3(C)C4=C(C)C(c5ccoc5)C[C@@H]4O[C@@H]3[C@H](O)[C@@H]12 (stereo not given in full)
3. Nc1nc(-[n+]2ccc(-c3ccncc3)cc2)nc(Cl)c1Cl

A:
1: 90.6 µM (inactive); 2: > 100 µM (inactive); 3: 26.3 µM (inactive)

* * *

Exercise: state measured GI50 for each of the compounds provided.
Test system: NCI/ADR-RES
test: NCI tumour cell line growth inhibition, 48 h
Calls of active or inactive are those of the source. Cut-off read from the data, not from the text of the source: active = GI50 up to about 1.1 µM and inactive = higher.

Answered examples (6):
> print(dat)
                                   compound               result
1  COc1ccc2nc3ccccc3c(NCCCCCN(CCCl)CCCl)c2c1   0.0399 µM (active)
2             Cn1cnc2c(sc3nc4ccccc4n32)c1=N  > 100 µM (inactive)
3   COc1cc(CCNC2=CC(=O)c3nc[nH]c3C2=O)ccc1O  > 100 µM (inactive)
4     COC(=O)NN=C(c1ccc(Cl)cc1)c1ccc(Cl)cc1  > 100 µM (inactive)
5        O=C(CN1c2ccccc2Sc2ccccc21)N1CCNCC1  > 100 µM (inactive)
6     C[n+]1c2ccccc2c2/c(=C\C#N)c3ccccc3n21     32 µM (inactive)

Give GI50 for each of the items listed below.
1. CCCCCCCCCCCCOCC1(COCCCCCCCCCCCC)COC(c2ccc(N)cc2)OC1
2. CCCCCC(C)SC1(C(=O)OC)CC(OC(C)=O)C(NC(C)=O)C([C@H](OC(C)=O)[C@@H](COC(C)=O)OC(C)=O)O1 (stereo partly specified)
3. Oc1ccc(-c2c3ccccc3c(-c3ccc(OCCBr)cc3)c3ccccc23)cc1
4. COc1cc(C2c3c(ccc4ccccc34)C(=O)C3CCC(=O)N32)cc(OC)c1OC (stereo unspecified)
5. COc1ccc(/C=C2\CCc3cc(OC)c(OC)cc3C2=O)cc1

A:
1: > 100 µM (inactive); 2: > 100 µM (inactive); 3: 19.6 µM (inactive); 4: > 50 µM (inactive); 5: > 10 µM (inactive)

* * *

System: SN12C
test: NCI tumour cell line growth inhibition, 48 h
The source made the active and inactive calls. Rule as the data show it: active = GI50 up to about 1.1 µM and inactive = higher.
quantity-kind: GI50

Answered examples (5):
> print(dat)
                                   molecule               result
1  CC1(C)OC[C@H](COCOP2(=O)Oc3ccc4ccccc4c3-c3c(ccc4ccccc34)O2)O1   16.4 µM (inactive)
2  O=C(c1ccccc1)c1oc2ccc(Br)cc2c1-c1cnn(-c2ccccc2)c1  > 100 µM (inactive)
3  O=c1[nH]c2ccc(CC(=S)N3CCN(c4ccccc4)CC3)cc2s1   70.6 µM (inactive)
4     CCc1n[nH]c(=O)n1N=C(c1ccccc1)c1ccccc1  > 100 µM (inactive)
5        C#CCCCCC#Cc1ccccc1C(=O)C=[N+]=[N-]  > 100 µM (inactive)

Shift focus to the following entry.
Q: Report GI50 on SN12C for this entry: C=CC1ON(Cc2ccccc2)CCc2cc(OC)c(OC)cc21 (stereo unspecified)
A: 77.4 µM (inactive)
